Experiment: Toxicity liver stage against HepG2, at 10uM
Format: cell-based
Design: test concentration 10 uM, cell line HepG2-A16-CD81EGFP
Conditions: human, HepG2-A16-CD81EGFP cells; read-out: INHIBITION
Form field: cytotoxicity at 10 µM (one value per entry).
measured endpoint: cytotoxicity at 10 µM (%)

                                    compound  meas_value
 0  N#Cc1cccc(N2CCCC3(CNCCO3)C2)n1 (stereo not drawn)        13.7
 1  c1cc2n(n1)CC(CNCc1ccc(OC3CCCCC3)nc1)CN2 (stereo not drawn)       -8.49
 2  COC(=O)c1cccc(NS(=O)(=O)c2cnc(NC(C)=O)s2)c1        7.21
 3       Cc1cc(N(C)Cc2snnc2C)nc(-c2cccnc2)n1        2.43
 4  O=C(NC1CC1)[C@@H]1CCO[C@@H]2CCN(C3CCOCC3)C[C@@H]21       -9.87
 5  CCOCCn1nc(C)cc1C(=O)N1CC[C@](O)(CC)[C@H](O)C1          -3
 6  CC(=O)N1CC2(CCN(C(=O)N(C)C)CC2)c2cc(C)ccc21         7.7
 7         Cc1cnc(CNCc2cnc(-c3ccccc3C)s2)cn1       -0.37
 8        CC(C)(C)NC(=O)c1ccc(COCC(F)(F)F)o1      -0.585
 9  CCc1nn(C)c(Cl)c1CN1CCC(c2cc(O)nc(C)n2)CC1       -9.74
10  CC(C)c1nc(CC(=O)Nc2nc(CN3CCCCCC3)cs2)cs1        6.02
11     CN(Cc1cc2n(n1)CCCNC2)Cc1n[nH]c2c1CCC2        3.04
12  O=C(Cn1ccc2cc(Br)ccc21)NC[C@@H]1CCCN2CCCC[C@H]12        14.5

====

Test: Toxicity liver stage against HepG2, at 10uM
Type: cell-based
Set-up: test concentration 10 uM, cell line HepG2-A16-CD81EGFP
Details: human, HepG2-A16-CD81EGFP cells; read-out: INHIBITION
measured endpoint: cytotoxicity at 10 µM (%)

                                    molecule      measured_endpoint  meas_value
 0  CC(Cn1cncc1-c1cnn(Cc2ccccc2)c1)N1CCCCC1 (stereo not drawn)  cytotoxicity at 10 µM        6.58
 1  COc1ccc(C2CC(=O)Oc3cc(C)[nH]c(=O)c32)cc1 (stereo not drawn)  cytotoxicity at 10 µM       -3.16
 2  O=C(C(CNCc1ccco1)c1ccccc1)N1CCOCC1 (stereo not drawn)  cytotoxicity at 10 µM        -2.1
 3  Cc1cccc(CN2C[C@@H]3CN(C(=O)c4ccsc4)C[C@@H]3C2=O)n1  cytotoxicity at 10 µM        5.86
 4      CCc1ccc(CC(=O)N2CCN(c3nccn3C)CC2)cc1  cytotoxicity at 10 µM      -0.647
 5  Cc1cccc(CN2C[C@H]3CC[C@@H](C2)N(Cc2c(C)noc2C)C3=O)n1  cytotoxicity at 10 µM       0.296
 6       Cc1cn2nc(N3CCn4c(nnc4C(C)C)C3)sc2n1  cytotoxicity at 10 µM        5.73
 7  O=C1CCC2(CCCN(C(=O)Cc3cccs3)C2)N1 (stereo not drawn)  cytotoxicity at 10 µM        3.76
 8  CCOCc1ccccc1NC(=O)NC1CCN(CC(F)(F)F)C1 (stereo not drawn)  cytotoxicity at 10 µM        1.81
 9  Cc1cnc(CN(C)C2CCN(Cc3sc(C)nc3C)C2)o1 (stereo not drawn)  cytotoxicity at 10 µM        3.45
10  NC(=O)CN1C(=O)CO[C@H]2CN(Cc3ccc(Cl)cc3)C[C@H]21  cytotoxicity at 10 µM          13
11          c1ccc(OCc2nc(CNCCn3cccn3)cs2)cc1  cytotoxicity at 10 µM        7.53
12               CCC(=O)NCc1ccc(N2CCCCC2)cc1  cytotoxicity at 10 µM       -6.89

====

Assay: Toxicity liver stage against HepG2, at 10uM
Type: cell-based
Design: test concentration 10 uM, cell line HepG2-A16-CD81EGFP
Conditions: human, HepG2-A16-CD81EGFP cells; read-out: INHIBITION
measured endpoint: cytotoxicity at 10 µM

                                   compound  meas_value
0       CN(C)Cc1cnc2n1CCN(C(=O)NC1CCCC1)CC2      -3.77%
1  CC(C)CCN1C2(CCN(C(=O)C3(C)CC3)C2)c2ccccc2S1(=O)=O (stereo not given)      -7.42%
2  COc1ccc2c(c1)OCC(CNC(=O)c1cc[nH]c1C)C2 (stereo not given)       3.34%
3  Cc1cccc(NC(=O)[C@@H]2CCCN2Cc2cnc3ccccn23)n1      -7.22%
4       CC(C)c1cc(CN(C)C(=O)CN2CCCCC2=O)no1       8.01%

====

Assay: Toxicity liver stage against HepG2, at 10uM
Format: cell-based
Parameters: test concentration 10 uM, cell line HepG2-A16-CD81EGFP
Conditions: human, HepG2-A16-CD81EGFP cells; read-out: INHIBITION
measured endpoint: cytotoxicity at 10 µM (%)

In [3]: df
Out[3]:
                                    molecule      measured_endpoint  endpoint_unit  meas_value
 0  Cc1nc(C2CCCN(C(=O)c3ccc(S(C)(=O)=O)cc3)C2)no1 (centres undefined)  cytotoxicity at 10 µM              %       -11.3
 1  CC(C)Cc1cn(C2CCN(C(C)CCn3cccn3)CC2)nn1 (centres undefined)  cytotoxicity at 10 µM              %        -1.8
 2  CC(=O)c1ccc(CN2CCCC23CCN(c2ccccn2)CC3)cc1  cytotoxicity at 10 µM              %         1.5
 3  CC(NC(=O)N1CCN(c2nccs2)CC1)c1nncn1C (centres undefined)  cytotoxicity at 10 µM              %       -13.1
 4    Cc1cc(-c2cnc(NC3CCCCC3)nc2-c2ccco2)on1  cytotoxicity at 10 µM              %       -16.4
 5  COCCN1CCC2(CCCN(C(=O)c3cnoc3C)C2)C1=O (centres undefined)  cytotoxicity at 10 µM              %       -23.8
 6  O=C(CCC1CCN(C(=O)c2csnn2)CC1)NCc1cccc(Cl)c1  cytotoxicity at 10 µM              %       -4.55
 7  Cc1cnn(CC(C)NCc2csc(-c3cccs3)n2)c1 (centres undefined)  cytotoxicity at 10 µM              %        -5.8
 8  O=C(NCC1OCCc2cn(CC3CCOCC3)nc21)c1ccsc1 (centres undefined)  cytotoxicity at 10 µM              %        4.84
 9  c1csc(-c2noc(CC3CCCO3)n2)c1 (centres undefined)  cytotoxicity at 10 µM              %       -3.37
10  CCCc1n[nH]c(C2CN(Cc3nnc(C4CCC4)o3)CCO2)n1 (centres undefined)  cytotoxicity at 10 µM              %       -2.42
11     Cn1cc(Cl)cc1C(=O)N1CCCN(Cc2ccccc2)CC1  cytotoxicity at 10 µM              %       -5.19
12  CC(=O)N1CCC2(CC1)CCN(C(=O)c1ccc(F)c(C(F)(F)F)c1)C2  cytotoxicity at 10 µM              %         -80
13          Oc1cc(CNCCN2CCCCC2)nc2c(F)cccc12  cytotoxicity at 10 µM              %       -1.16
14           O=C(Cc1csc(-c2ccco2)n1)N1CCSCC1  cytotoxicity at 10 µM              %       -16.2
15  CN1CCN(Cc2cnn(-c3ccc(F)cc3)c2)[C@H]2CS(=O)(=O)C[C@H]21  cytotoxicity at 10 µM              %        12.8
16       Cc1ccccc1CN1CCC(CNC(=O)Cn2cncn2)CC1  cytotoxicity at 10 µM              %        3.83
17      CSc1cc2c(cc1NC(=O)NCC(=O)N(C)C)OCCO2  cytotoxicity at 10 µM              %       -5.87
18  O=C(c1cc(C2CC2)no1)N1C[C@@H]2CC[C@H]1CN(Cc1ccccn1)C2  cytotoxicity at 10 µM              %        2.21
19  CN(CC(=O)N1CCN(c2ccccn2)CC1)c1ccc(Cl)cn1  cytotoxicity at 10 µM              %        -2.3
20  CCCc1nc(CN2CCOC(Cn3cncn3)C2)no1 (centres undefined)  cytotoxicity at 10 µM              %       -7.03
21  COCCn1c(-c2cccc(OC)c2)cnc1NC(=O)NCCC(C)C  cytotoxicity at 10 µM              %        12.9
22  CC(C)(C)Nc1c(C2CCCN(C(=O)C3CC3)C2)nc2ccccn12 (centres undefined)  cytotoxicity at 10 µM              %        8.07
23  COCC(=O)NC(CC(C)C)c1nc2cccnc2n1C (centres undefined)  cytotoxicity at 10 µM              %        15.2
24      c1coc(COCc2ncn3c2CN(Cc2cccs2)CCC3)c1  cytotoxicity at 10 µM              %       -76.2
25        O=C(CCNc1ncccn1)NCc1cccc(OC(F)F)c1  cytotoxicity at 10 µM              %       -1.75
26  O=C1Nc2ccccc2CC12CCCN2Cc1cccnc1 (centres undefined)  cytotoxicity at 10 µM              %        7.27
27  Cc1cnc(N2CCC3(CC2)C(c2ccccc2)CC(=O)N3C)nc1 (centres undefined)  cytotoxicity at 10 µM              %       -4.35
28  COC[C@@]12CCC[C@@H]1CN(C(=O)COC1CCCC1)C2  cytotoxicity at 10 µM              %        4.35
29  NC(=O)[C@@H]1CN2CCN(C(=O)C3CC3)C[C@@H]2[C@H]1c1ccccc1  cytotoxicity at 10 µM              %        3.88
30  COc1ccccc1CNC(Cc1cccs1)c1nc(C)cs1 (centres undefined)  cytotoxicity at 10 µM              %       -6.12
31         O=C(NCCn1ccnc1)N1CCN(Cc2ccco2)CC1  cytotoxicity at 10 µM              %        3.94
32  NC(=O)c1csc(N2CCCC(c3nc4ccccc4[nH]3)C2)n1 (centres undefined)  cytotoxicity at 10 µM              %         8.5
33  Cn1cc(C[C@H]2[C@H](N3CCOCC3)CCN2c2ncc(F)cn2)cn1  cytotoxicity at 10 µM              %        7.23
